Source of measurements: patent US7135466B2

Documented IC50 across a set of compounds
Biological target: c-kit (Homo sapiens, UniProt P10721)
Construct: MO7e (human megakaryocytic leukemia cell line) which had been arrested for 20 hr; endogenous in cells; host or cells: MO7e human megakaryocytic leukemia cell line
Sequence (P10721 26-976): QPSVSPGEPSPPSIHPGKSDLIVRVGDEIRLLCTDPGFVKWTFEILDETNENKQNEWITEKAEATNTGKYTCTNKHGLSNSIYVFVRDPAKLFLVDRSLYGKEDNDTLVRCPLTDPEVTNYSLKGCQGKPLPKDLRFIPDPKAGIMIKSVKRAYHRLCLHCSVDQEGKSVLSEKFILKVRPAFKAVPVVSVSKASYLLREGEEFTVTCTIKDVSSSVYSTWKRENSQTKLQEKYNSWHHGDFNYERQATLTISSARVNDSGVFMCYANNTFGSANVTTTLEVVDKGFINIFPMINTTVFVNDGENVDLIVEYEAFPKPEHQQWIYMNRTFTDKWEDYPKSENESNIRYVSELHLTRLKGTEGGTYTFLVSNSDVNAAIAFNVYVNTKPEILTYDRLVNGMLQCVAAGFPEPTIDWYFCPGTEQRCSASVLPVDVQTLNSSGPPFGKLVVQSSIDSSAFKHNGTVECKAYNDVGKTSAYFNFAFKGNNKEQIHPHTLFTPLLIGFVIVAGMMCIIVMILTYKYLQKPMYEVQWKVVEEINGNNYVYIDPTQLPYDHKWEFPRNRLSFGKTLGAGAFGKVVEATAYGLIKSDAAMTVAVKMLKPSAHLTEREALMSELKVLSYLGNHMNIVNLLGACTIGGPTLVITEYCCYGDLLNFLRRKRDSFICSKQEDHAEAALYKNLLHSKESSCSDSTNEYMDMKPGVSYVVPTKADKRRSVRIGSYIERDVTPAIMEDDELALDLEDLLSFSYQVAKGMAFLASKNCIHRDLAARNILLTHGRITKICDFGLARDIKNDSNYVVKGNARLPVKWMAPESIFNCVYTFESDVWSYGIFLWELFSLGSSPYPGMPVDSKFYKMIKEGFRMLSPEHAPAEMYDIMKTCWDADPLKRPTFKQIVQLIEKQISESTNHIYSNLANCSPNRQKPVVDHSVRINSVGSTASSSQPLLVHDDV
Assay: Inhibitory activity against c-kit autophosphorylation (MO7e cells, h-SCF)
Type: cell-based
Conditions: MO7e cells, h-SCF 50 ng/ml; read-out: c-kit IC50
Report the value in nM with no unit label.

// worked examples, IC50 included
1. CCOc1ccccc1C(C)OC(=O)Nc1ccc(Oc2ccnc3cc(OC)c(OC)cc23)cc1 (centres unmarked) [Example 127]: 283
2. COc1cc2ncnc(Oc3ccc(NC(=O)OC4CCCCC4)cc3)c2cc1OC [Example 312]: 29
3. COc1cc2nccc(Oc3ccc(NC(=O)OCCOc4ccccc4F)cc3)c2cc1OC [Example 203]: 169
4. COc1cc2nccc(Oc3ccc(NC(=O)OC4CCCC4)cc3)c2cc1OC [Example 363]: 72
5. COc1cc2ncnc(Oc3ccc(NC(=O)OCCCSc4cc(C)ccc4C)cc3)c2cc1OC [Example 172]: 74
6. COc1ccc(C(C)OC(=O)Nc2ccc(Oc3ncnc4cc(OC)c(OC)cc34)cc2)cc1 (centres unmarked) [Example 35]: 342
7. COc1cc2ncnc(Oc3ccc(NC(=O)OCCC4CCCCC4)c(Cl)c3)c2cc1OC [Example 357]: 116

Here's the next entry for you.
Task item: State its IC50 on c-kit (Homo sapiens, UniProt P10721): COc1cc2ncnc(Oc3ccc(NC(=O)OCc4ccccc4C)cc3)c2cc1OC [Example 319]
Reply: 98

---

Target: c-kit (Homo sapiens)
Construct: MO7e (human megakaryocytic leukemia cell line) which had been arrested for 20 hr; endogenous in cells; host or cells: MO7e human megakaryocytic leukemia cell line
Assay: Inhibitory activity against c-kit autophosphorylation (MO7e cells, h-SCF)
Type: cell-based
Details: Mo7e, figure within parentheses in −( ) or >1000( ); at 1000 nM
Documented inhibition at 1 µM across a set of compounds
Report the value in % with no unit label.

// worked examples, inhibition at 1 µM included
1) CCN(CC)CCCNC(=S)Nc1ccc(Oc2ccnc3cc(OC)c(OC)cc23)c(C)c1C: 44
2) COc1cc2ncnc(Oc3ccc(NC(=O)NCCN4CCCC4)cc3)c2cc1OC: 30
3) CCCCN(CCCC)CCNC(=O)Nc1ccc(Oc2ncnc3cc(OC)c(OC)cc23)cc1OC: 19

Here's the next entry for you.
Task item: Name the reported inhibition at 1 µM value associated with the compound `COc1cc2nccc(Oc3ccc(NC(=S)NC(=O)c4cc(C)oc4C)cc3Cl)c2cc1OC`
Reply: 29

---

Target: PDGF-Ra (Homo sapiens, UniProt P16234)
Construct: host or cells: G-292 human osteosarcoma cells
Sequence (P16234 24-1089): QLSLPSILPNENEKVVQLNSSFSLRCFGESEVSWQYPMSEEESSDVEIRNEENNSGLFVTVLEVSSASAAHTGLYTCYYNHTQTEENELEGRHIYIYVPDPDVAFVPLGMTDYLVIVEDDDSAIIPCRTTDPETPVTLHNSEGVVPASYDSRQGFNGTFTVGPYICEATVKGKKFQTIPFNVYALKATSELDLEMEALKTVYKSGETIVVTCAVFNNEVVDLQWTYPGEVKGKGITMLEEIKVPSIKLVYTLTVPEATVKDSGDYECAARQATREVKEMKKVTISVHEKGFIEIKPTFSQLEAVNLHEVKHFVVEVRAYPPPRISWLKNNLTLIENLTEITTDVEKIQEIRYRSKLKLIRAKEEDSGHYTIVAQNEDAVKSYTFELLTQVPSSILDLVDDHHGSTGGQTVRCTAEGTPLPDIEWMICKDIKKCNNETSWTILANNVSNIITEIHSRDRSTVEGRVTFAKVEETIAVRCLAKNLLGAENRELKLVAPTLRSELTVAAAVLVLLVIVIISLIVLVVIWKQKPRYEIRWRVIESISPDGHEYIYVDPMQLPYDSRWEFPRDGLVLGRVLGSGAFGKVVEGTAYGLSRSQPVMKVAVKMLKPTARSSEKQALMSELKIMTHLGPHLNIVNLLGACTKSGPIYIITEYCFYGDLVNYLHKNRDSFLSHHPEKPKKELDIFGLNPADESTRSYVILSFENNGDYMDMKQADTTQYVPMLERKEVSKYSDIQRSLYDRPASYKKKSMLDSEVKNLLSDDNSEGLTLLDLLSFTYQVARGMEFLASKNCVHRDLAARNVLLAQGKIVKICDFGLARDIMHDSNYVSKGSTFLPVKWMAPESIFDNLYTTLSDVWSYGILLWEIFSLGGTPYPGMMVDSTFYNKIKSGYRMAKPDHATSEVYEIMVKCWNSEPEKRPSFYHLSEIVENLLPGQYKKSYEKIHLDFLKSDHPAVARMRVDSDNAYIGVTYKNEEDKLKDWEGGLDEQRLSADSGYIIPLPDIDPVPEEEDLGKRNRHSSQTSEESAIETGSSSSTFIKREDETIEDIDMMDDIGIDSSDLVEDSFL
Assay: Inhibitory activity against PDGF-Ra phosphorylation by PDGF-AA stimulation using G292
Assay type: cell-based
Conditions: > means inhibition at indicated concentration not more than 50%, < and << not less than 50%; read-out: PDGF (E) IC50
// boundary case: IC50 equal to 20 nM maps to label 0; strictly smaller maps to label 1

Task item: Hello, is IC50 of the following compound strictly smaller than 20 nM? `COc1cc2ncnc(Oc3ccc(OC(=O)c4ccccc4)cc3)c2cc1OC`
Reply: label 0

Task item: Hello, is IC50 of the following compound strictly smaller than 20 nM? `COc1cc2ncnc(Oc3ccc(NC(=S)NC(=O)CCCCl)cc3)c2cc1OC`
Reply: label 1

Task item: Hello, is IC50 of the following compound strictly smaller than 20 nM? COc1cc2nccc(Oc3cc(C)c(NC(=O)OC4CCCN(C)C4)cc3C)c2cc1OC (centres unmarked)
Reply: label 0

Task item: Hello, is IC50 of the following compound strictly smaller than 20 nM? `COc1cc2nccc(Oc3ccc(NC(=S)NC(=O)C4(c5ccccc5)CC4)cc3Cl)c2cc1OC`
Reply: label 0

Task item: Hello, is IC50 of the following compound strictly smaller than 20 nM? `COc1cc2nccc(Oc3ccc(NC(=O)NC4CCN(Cc5ccccc5)CC4)cc3F)c2cc1OC`
Reply: label 0

Task item: Hello, is IC50 of the following compound strictly smaller than 20 nM? `COc1cc2nccc(Oc3ccc(NC(=S)NC(=O)COc4ccccc4Cl)cc3Cl)c2cc1OC`
Reply: label 1

Task item: Hello, is IC50 of the following compound strictly smaller than 20 nM? `COc1cc2nccc(Oc3ccc(NC(=S)NC(=O)CCc4ccccc4C)cc3)c2cc1OC`
Reply: label 1

Task item: Hello, is IC50 of the following compound strictly smaller than 20 nM? `COc1cc2nccc(Oc3ccc(NC(=S)NC(=O)c4ccc(C)cc4C)cc3)c2cc1OC`
Reply: label 0

---

Molecular target: c-kit (Homo sapiens, UniProt P10721)
Construct: MO7e (human megakaryocytic leukemia cell line) which had been arrested for 20 hr; endogenous in cells; host or cells: MO7e human megakaryocytic leukemia cell line
Experiment: Inhibitory activity against c-kit autophosphorylation (MO7e cells, h-SCF)
Type: cell-based
Conditions: Mo7e, figure in parentheses in −( ); at 1000 nM
Documented inhibition at 1 µM across a set of compounds
Report the value in % with no unit label.

Task item: Name the reported inhibition at 1 µM value associated with the compound `COc1cc2ncnc(Oc3ccc(NC(=O)OCCCSc4ccc(C(C)(C)C)cc4)c(Cl)c3)c2cc1OC`
Reply: 14

Task item: Name the reported inhibition at 1 µM value associated with the compound COc1cc2ncnc(Oc3ccc(NC(=O)OC(C)c4cccc(Br)c4)c(Cl)c3)c2cc1OC (stereo not shown)
Reply: 17

Task item: Name the reported inhibition at 1 µM value associated with the compound `COc1cc2nccc(Oc3ccc(NC(=S)NC(=O)c4ccccc4C)c(C)c3C)c2cc1OC`
Reply: 25

Task item: Name the reported inhibition at 1 µM value associated with the compound `COc1cc2nccc(Oc3ccc(NC(=S)NC(=O)c4ccc(F)cc4F)cc3F)c2cc1OC`
Reply: 22

Task item: Name the reported inhibition at 1 µM value associated with the compound `COc1cc2ncnc(Oc3ccc(NC(=S)NC(=O)c4ccccc4OC)cc3)c2cc1OC`
Reply: 21

Task item: Name the reported inhibition at 1 µM value associated with the compound COc1cc2nccc(Oc3ccc([S+]([O-])CCOc4ccc(F)cc4[N+](=O)[O-])cc3)c2cc1OC (stereo not shown)
Reply: 30

Task item: Name the reported inhibition at 1 µM value associated with the compound `COc1cc2ncnc(Oc3ccc(SCCCCOc4cccc(C)c4)cc3)c2cc1OC`
Reply: 9

Task item: Name the reported inhibition at 1 µM value associated with the compound `COc1cc2nccc(Oc3ccc(S(=O)(=O)CCOc4ccccc4F)cc3)c2cc1OC`
Reply: 19

---

Target: PDGF-Ra (Homo sapiens, UniProt P16234)
Construct: host or cells: G-292 human osteosarcoma cells
Assay: Inhibitory activity against PDGF-Ra phosphorylation by PDGF-AA stimulation using G292
Format: cell-based
Details: > means inhibition at indicated concentration not more than 50%, < and << not less than 50%; read-out: PDGF (E) IC50
Assay readout: IC50

// worked examples, IC50 included
1. C=C(C)COC(=O)Nc1ccc(Oc2ccnc3cc(OC)c(OC)cc23)cc1 [Example 404]: < 10 nM
2. CCCC(CCC)OC(=O)N(C)c1ccc(Oc2ncnc3cc(OC)c(OC)cc23)cc1 [Example 493]: 39 nM
3. COc1cc2ncnc(Oc3ccc(NC(=S)NC4CCN(Cc5ccccc5)CC4)cc3)c2cc1OC [Example 518]: > 100 nM
4. CCN(CC)CCCOC(=O)Nc1cc(C)c(Oc2ccnc3cc(OC)c(OC)cc23)cc1C [Example 427]: > 100 nM
5. COc1cc(Oc2ncnc3cc(OC)c(OC)cc23)ccc1NC(=O)OC1CCCCCC1 [Example 498]: < 10 nM

Task item: Name the reported IC50 value associated with the molecule COc1cc2nccc(Oc3ccc(NC(=S)NC(=O)C4C(C)(C)C4(C)C)cc3Cl)c2cc1OC [Example 760]
Reply: 83 nM

---

Documented pIC50 across a set of compounds
Target: c-kit (Homo sapiens)
Construct: MO7e (human megakaryocytic leukemia cell line) which had been arrested for 20 hr; endogenous in cells; host or cells: MO7e human megakaryocytic leukemia cell line
Experiment: Inhibitory activity against c-kit autophosphorylation (MO7e cells, h-SCF)
Format: cell-based
Conditions: MO7e cells, h-SCF stimulation; read-out: c-kit IC50
// pIC50: -log10(molar conc.)

1) COc1cc2nccc(Oc3ccc(SCCOc4ccc(C)cc4C)cc3)c2cc1OC: 6.77
2) COc1cc2nccc(Oc3ccc(NC(=S)NC(=O)C4CC4c4ccccc4)cc3Cl)c2cc1OC (centres unmarked): 6.26
3) COc1cc2nccc(Oc3ccc(NC(=S)NC(=O)c4cccc(C)c4C)cc3)c2cc1OC: 6.17
4) COc1cc2nccc(Oc3ccc(NC(=S)NC(=O)c4ccccc4C)cc3F)c2cc1OC: 6.30
5) COc1ccc(C(=O)NC(=S)Nc2ccc(Oc3ccnc4cc(OC)c(OC)cc34)cc2)cc1: 6.15

Task item: Name the reported pIC50 value associated with the compound `COc1cc2nccc(Oc3ccc(NC(=S)NC(=O)c4cccc(C)c4)cc3C)c2cc1OC`
Reply: 6.95

Task item: Name the reported pIC50 value associated with the compound `COc1cc2nccc(Oc3ccc(NC(=S)NC(=O)c4ccc(Cl)cc4)cc3)c2cc1OC`
Reply: 6.20

Task item: Name the reported pIC50 value associated with the compound COc1cc2nccc(Oc3ccc(NC(=S)NC(=O)C4CC4c4ccccc4)cc3)c2cc1OC (centres unmarked)
Reply: 6.51
